Species: Rattus norvegicus
Format: toxicity, organism-based, Sprague-Dawley
CONDITION SET: in vivo, sc, 0.5 mg/kg, 24 h, tissue Blood, route mini-PUMP - SUBCUTANEOUS, dose level High, time 1 day, vehicle 100 % SALINE
Description: DrugMatrix - Regimen: Single
PARAMETER MEASURED: ABSOLUTE EOSINOPHIL
Lab note: write values as number then unit, every time.

### Prompt Item "CC[C@H](C)[C@H](NC(=O)[C@H](Cc1ccc(O)cc1)NC(=O)[C@@H](NC(=O)[C@H](CCCNC(=N)N)NC(=O)[C@@H](N)CC(=O)O)C(C)C)C(=O)N[C@@H](Cc1cnc[nH]1)C(=O)N1CCC[C@H]1C(=O)N[C@@H](Cc1ccccc1)C(=O)O" has what recorded ABSOLUTE EOSINOPHIL?
### Response 46.7 cells/µL

###

Please go through the items and note down their CHLORIDE.
Species on record: Rattus norvegicus
PROTOCOL TEXT: DrugMatrix - Regimen: Daily Repeat
Type: toxicity, organism-based, Sprague-Dawley
Set-up: regimen Daily Repeat, gender Male, age 6-8 weeks
CONDITION SET: in vivo, po, 0 mg/kg, 120 h, tissue Plasma, route oral GAVAGE, dose level Control, time 5 day, vehicle 100 % WATER
One number for each entry, in MEQ/L.

>>> meas_value("CC(C)(C)c1ccc(C(=O)CCCN2CCC(OC(c3ccccc3)c3ccccc3)CC2)cc1")
101.5
>>> meas_value("CC(C)C[C@H](NC(=O)[C@@H](O)[C@H](N)Cc1ccccc1)C(=O)O")
103.5
>>> meas_value("C[C@@H]1C[C@@H]([C@H](O)CC2CC(=O)NC(=O)C2)C(=O)[C@@H](C)C1 [CYCLOHEXIMIDE]")
99.33

// each molecule listed below needs its CHLORIDE
1. Nc1ccn([C@@H]2CS[C@H](CO)O2)c(=O)n1
2. C[N+](C)(C)CCO.[Cl-] [CHOLINE CHLORIDE]
3. COC(=O)C1=C(C)NC(C)=C(C(=O)OCC(C)C)C1c1ccccc1[N+](=O)[O-] (stereo not given)
4. CC(C)NCC(O)COc1cccc2ccccc12 (stereo not given)
5. COc1cc2ncnc(Nc3ccc(F)c(Cl)c3)c2cc1OCCCN1CCOCC1

### Response
1: 100.83; 2: 101.83; 3: 98.33; 4: 103.83; 5: 98.17

Each molecule below has a reported value. Please supply its CHLORIDE.
1. ClC(Cl)Cl [CHLOROFORM]
2. Cc1ncc([N+](=O)[O-])n1CCO

### Response
1: 101.5; 2: 101.5

###

Organism: Rattus norvegicus
PROTOCOL TEXT: DrugMatrix - Regimen: Daily Repeat
Assay type: toxicity, organism-based, Sprague-Dawley
Parameters: regimen Daily Repeat, gender Male, age 6-8 weeks
CONDITION SET: in vivo, po, 10 mg/kg, 72 h, tissue Plasma, route oral GAVAGE, dose level Low, time 3 day, […]
Could you please report measured CARBON DIOXIDE for the items listed next?
Numbers only, in mmol/L.

Worked examples follow.
>>> meas_value("CCOC(=O)C1=C(C)NC(C)=C(C(=O)OC)C1c1cccc([N+](=O)[O-])c1 (centres undefined) [NITRENDIPINE]")
34.33
>>> meas_value("COc1ccc2cc([C@H](C)C(=O)O)ccc2c1 [NAPROXEN]")
20.33
>>> meas_value("CC(C)CC(N(C)C)C1(c2ccc(Cl)cc2)CCC1 (centres undefined) [SIBUTRAMINE]")
33

# context switch: different compound, same CARBON DIOXIDE
### Prompt // returns reported CARBON DIOXIDE for input COCCOC(=O)C1=C(C)NC(C)=C(C(=O)OC(C)C)C1c1cccc([N+](=O)[O-])c1 (centres undefined) [NIMODIPINE]
### Response 33
